Molecular target: PTGR2 (Homo sapiens, UniProt Q8N8N7)
Sequence (Q8N8N7 whole entry): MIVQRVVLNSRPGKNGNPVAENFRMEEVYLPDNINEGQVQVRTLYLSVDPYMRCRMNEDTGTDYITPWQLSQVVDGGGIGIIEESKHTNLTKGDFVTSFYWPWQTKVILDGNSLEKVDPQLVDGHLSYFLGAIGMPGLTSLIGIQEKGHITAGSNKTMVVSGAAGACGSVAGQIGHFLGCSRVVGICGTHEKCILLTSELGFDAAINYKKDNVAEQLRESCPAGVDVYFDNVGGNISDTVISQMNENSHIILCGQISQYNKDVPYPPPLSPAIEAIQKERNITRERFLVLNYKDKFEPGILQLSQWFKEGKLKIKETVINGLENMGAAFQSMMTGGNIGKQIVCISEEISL
Experiment: In vitro LCMS-based activity assay for PTGR2 (15-keto-PGE2 reductase activity)
Format: biochemical
Settings: recombinant PTGR2; read-out: IC50 for inhibition of PTGR2-mediated reduction of 15-keto-PGE2 (15-keto-PGE2 reductase activity)
Procedure: Aliquots (1 μL) of test compounds dissolved in DMSO were transferred to 1.5 mL eppendorf tubes followed by addition of recombinant human PTGR2 (44 μL, 200 nM final concentration) in freshly prepared reaction buffer (Tris Buffer, 1 mM EDTA, 50 μM TCEP, 300 μM NADPH). The resulting mixture was vortexed and then incubated at 37° C. for 20 min. […] Directly prior to analysis, samples were reconstituted in 100 μL of MeCN:H2O (1:1, v/v) and analyzed by LC/MS/MS. […]
pIC50: −log10 of the molar value.
measured.metric: pIC50

>>> df
                             molecule                           measured_on  observed
0  COc1ccccc1N1CCN(C(=O)Cc2ccccc2)CC1  PTGR2 (Homo sapiens, UniProt Q8N8N7)      6.22

Just for reference, patent US11535597B2 is where these values come from.
